Data provenance is the supplement of paper PMC11208160.

test: recombinant barcode read abundance after kanamycin selection (control-corrected) (log10(CPM+1)); higher = more efficient recombination; sequences stand for … in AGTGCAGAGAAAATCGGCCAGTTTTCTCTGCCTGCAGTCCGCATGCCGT…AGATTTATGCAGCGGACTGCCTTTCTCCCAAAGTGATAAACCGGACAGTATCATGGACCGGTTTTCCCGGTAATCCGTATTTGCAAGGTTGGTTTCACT; site = the 11-nt target;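 also: IS621 recombinase and bridge RNA in Escherichia coli cells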
measured-parameter: recombinant barcode read abundance (log10)

| sequence-content | recorded-measurement |
| --- | --- |
| TATGACGCTTGGGTTCTAACCTGTTGCCT (site TACGACGCTAG) | 0.124 |
| AAGTTGACTTGGGTTCTAACCTGTTGCCT (site AATTTGACTAG) | 0.304 |
| ATAACAGCTTGGGTTCTAACCTGTTGCCT (site ATAACAGCTAG) | 1.43 |
| TACCGCTCTTGGGTTCTAACCTGTTGCTT (site TACAGCTCTAA) | 0.0488 |
| ACGTTGCCTTGGGTTCTAACCTGTTGCCT (site ACTTTGCCTAG) | 0.0271 |
| ACGAAGACTTGGGTTCTAACCTGTTGCCG (site ACGAGGACTCG) | 0.0668 |
| AAACCACCTTGGGTTCTAACCTGTTGCCT (site ATACCACCTAG) | 0.861 |
| GGGGAGCCTTGGGTTCTAACCTGTTGCGG (site GGGGATCCTTC) | 0.335 |
| TCCGAGACTTGGGTTCTAACCTGTTGCCT (site TCCGAGACTCG) | 0.048 |
| AAATTTCCTTGGGTTCTAACCTGTTGCCT (site AGATTTCCTAG) | 0.0553 |
